Could you please report measured % Mortality, Test Example3 Aphis gossypii for the items listed next?
tested on: Aphis gossypii; experiment: Pest control test of Aphis gossypii, cucumber leaf disk foliar spray; type: in vivo; conditions: foliar treatment, 1.25 ppm
Answers are plain numbers, in %.

compound smiles	recorded value
FC(F)C(=S)N=c1ccccn1Cc1ccc(Cl)nc1	100
FC(F)(F)C(=S)N=c1ccccn1Cc1ccc(Br)nc1	100
Fc1cc(Cn2ccccc2=NC(=S)C(F)(F)F)cnc1Cl	55

Then this molecule:
Input: Give % Mortality, Test Example3 Aphis gossypii for this entry on Aphis gossypii: "Fc1ccc(Cn2ccccc2=NC(=S)C(F)(F)F)cn1"
Output: 100

###

system: Laodelphax striatella; test: Pest control test of Laodelphax striatella, soil irrigation treatment of rice seedling; type: in vivo; details: soil irrigation treatment, 0.05 mg/pot
Could you please report measured % Mortality, Test Example 10 Laodelphax striatella for the items listed next?
// return the numeric value with its unit appended

A selection of reference data follows.
compound	recorded value
FC(F)(F)C(=S)N=c1ccccn1Cc1ccc(Br)nc1 [Compound 4-20]	100%
Fc1cc(Cn2ccccc2=NC(=S)C(F)(F)F)cnc1Cl [Compound 5-20]	95%
FC(F)C(=S)N=c1ccccn1Cc1ccc(Cl)nc1 [Compound 1-21]	100%

Provide % Mortality, Test Example 10 Laodelphax striatella values for the following items, in order.
1. FC(F)(F)C(=S)/N=c1\ccccn1Cc1ccc(Cl)nc1 [Compound 1-20]
2. Fc1ccc(Cn2ccccc2=NC(=S)C(F)(F)F)cn1 [Compound 3-20]

Output:
["100%", "90%"]

Ref: patent US20150005347A1
